Provide the reported protein stability index of each item.
B1: KCNK9 (parent)
chain: DVPDLQSVCSCTCYRSQDYGGRSV

Variants of: B1
protocol_description: protein stability index of a GFP-peptide fusion (GPS, HEK-293T) (PSI 1-6); higher = more stable;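 also: lentivirally expressed fusions sorted by FACS into six bins by GFP to DsRed ratio, PSI derived from sequencing read proportions per bin multiplied by bin number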
condition_set: c terminus: a fixed tail appended
One number for each entry.

Record excerpt, results attached:
mutations: D18C
protein stability index: 1.97

mutations: R15P
protein stability index: 2.05

mutations: Q17G
protein stability index: 2.21

Respectfully, I request protein stability index for each entry included below.
1. T12G
2. V24P
3. V24Q
4. L5F
5. V24K
6. D1E
7. C9M
8. D4Q

Output:
1. 1.52
2. 2.35
3. 1.72
4. 2.15
5. 1.45
6. 1.44
7. 2.06
8. 3.18

Respectfully, I request protein stability index for each entry included below.
1. V8F
2. S16D

Output:
1: 2.22; 2: 1.85

Respectfully, I request protein stability index for each entry included below.
1. P3D
2. R15F

Output:
1.36
1.78

Values compiled from the supplement of paper PMC10567573.
